Where do these numbers come from? They come from patent US20100255008A1.

Molecular target: T1, human Flag-tagged soluble TWEAK (amino acids 106-249) (human, UniProt O43508 106-249)
T1 construct: the tag is put first here only by convention; also called Human TWEAK; not shown: Flag tag
T1 sequence (looked up): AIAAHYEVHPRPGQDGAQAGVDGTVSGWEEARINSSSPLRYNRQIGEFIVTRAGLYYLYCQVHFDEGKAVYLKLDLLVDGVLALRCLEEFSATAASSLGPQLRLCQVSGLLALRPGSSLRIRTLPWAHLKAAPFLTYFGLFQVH
Assay: receptor interaction ELISA: antibody pre-incubated with human Flag-tagged soluble TWEAK, binding to coated human Fn14:Fc
Measure: IC50 (µg/mL)
Reply numerically in µg/mL, unit not repeated.

Specify IC50 for Antibody 25 (antibody, V domains shown) VH: QVQLQESGPGLVKPSETLSLTCAVSGYSIRSGYWWSWIRQQPGKGLEWIGQIYNKGNTDNNPALKSQVTISVDTSKNQFSLKLSSVTAADTAVYYCARVFWDDAYFDVWGQGTMVTVSS VL: EIVLTQSPGTLSLSPGERATLSCKASQSVSIGPIHLMHWYQQKPGQAPRLLIYGASNPESGIPDRFSGSGSGTDFTLTISRLEPEDFAVYYCQQGKESPRTFGQGTKLEIK and stop.
0.042

Specify IC50 for TW205 (antibody, V domains shown, Armenian hamster monoclonal antibody; also called Antibody 205) VH: QIHLQESGLGLVKPSQSLTLTCSVTGFSITTPDYSWHWIRQFPGQTLEWMGFLYYEGDTYYNPSLKSRISIARDASKNQFFLQLKSVTTEDTATYFCVRRKYSGYGNWFAYWGQGTQVTVSS VL: QPVLTQAPSASASLRASVKLTCTLSSQHSTYYIEWYQQHPDKAPRYVMYVDSDGSHIKGDGVPDRFSGSSSGARRYLSISNLQPEDEAIYHCGVYDSTAGAVFGSGTQLTVLG and stop.
0.0088

Specify IC50 for Antibody 18 (antibody, V domains shown) VH: QVQLQESGPGLVKPSETLSLTCTVSGYSIRSGYWWSWIRQPPGKGLEWIGQIYNKGNTDNSPSLKSRVTISVDTSKNQFSLKLSSVTAADTAVYYCARVFWDDAYFDVWGQGTMVTVSS VL: EIVLTQSPATLSLSPGERATLSCKASQSVSIGPIHLMHWYQQKPGQAPRLLIYGASNPESGIPARFSGSGSGTDFTLTISSLEPEDFAVYYCQQGKESPRTFGQGTKLEIK and stop.
0.016

Moving on to the next binder.
Specify IC50 for Antibody 17 (antibody, V domains shown) VH: QVQLQESGPGLVKPSETLSLTCTVSGYSIRSGYWWSWIRQPPGKGLEWIGQIYNKGNTDNNPALKSRVTISVDTSKNQFSLKLSSVTAADTAVYYCARVFWDDAYFDVWGQGTMVTVSS VL: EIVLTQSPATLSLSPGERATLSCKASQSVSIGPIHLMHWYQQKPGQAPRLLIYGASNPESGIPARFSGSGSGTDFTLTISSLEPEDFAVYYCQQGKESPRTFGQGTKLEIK and stop.
0.014
